Reported pIC50 values for a set of substances
TARGET_OR_TEST_SYSTEM: HIV-1 IN-IN subunit exchange (Human immunodeficiency virus type 1 group M subtype B)
Construct: Full-length IN and LEDGF proteins were expressed in E. coli BL21(DE3); made in house; host or cells: E. coli BL21(DE3)
PROCEDURE_TEXT: HTRF-based IN subunit exchange assay (IN-IN dimerization)
Type: binding
RECORDED_CONDITIONS: concentration required to inhibit the HIV-1 IN-IN subunit exchange by 50%; HTRF, His- and FLAG-tagged IN
pIC50: −log10 of the molar value.

| SUBSTANCE | RESULT |
| --- | --- |
| Ac-VVAAEIVAH-NH2 [Peptide 24] | 4.49 |

*Q* Enter reported pIC50 observed with HIV-1 IN-IN subunit exchange (Human immunodeficiency virus type 1 group M subtype B) for Ac-VVAKEIVAH-NH2 [Peptide 18]
*A* < 4.00

*Q* Enter reported pIC50 observed with HIV-1 IN-IN subunit exchange (Human immunodeficiency virus type 1 group M subtype B) for Ac-VVAKAIVAH-NH2 [Peptide 25]
*A* < 4.00

These data points were gathered from paper PMC4901077.
